Tested on: ML-2
RUN_DESCRIPTION: cells
Assay type: functional, cell-based
PARTICULARS: Homo sapiens
Description: SANGER: Inhibition of human ML-2 cell growth in a cell viability assay.
List of IC50 values.
Just the number in nM, nothing appended.

In the examples that follow, each entry is paired with its recorded IC50.
*Q* Consider the molecule "COc1ccc(-c2ccc3c(N4CCOC[C@@H]4C)nc(N4CCOC[C@@H]4C)nc3n2)cc1CO" and give its recorded IC50.
*A* 585

*Q* Consider the molecule "O=C(NOCC1CC1)c1ccc(F)c(F)c1Nc1ccc(I)cc1Cl" and give its recorded IC50.
*A* 1530

Here is the next item to consider.
*Q* Consider the molecule O=C(/C=C/c1ccccc1)NC(NC(=S)Nc1cccc2cccnc12)C(Cl)(Cl)Cl (stereo not drawn) and give its recorded IC50.
*A* 4620

---

Test system: NCI-H1963;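 further: cell growth inhibition of the human line, determined with a cell viability assay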
RUN_DESCRIPTION: cells
Assay type: functional, cell-based
PARTICULARS: Homo sapiens
Description: SANGER: Inhibition of human NCI-H1963 cell growth in a cell viability assay.
ASSAY_READOUT: IC50

*Q* Consider the compound "CC1=C2C[C@H]3[C@@H](CC=C4C[C@@H](O)CC[C@@]43C)[C@@H]2CC[C@]12O[C@@H]1C[C@H](C)CN[C@H]1[C@H]2C" and give its recorded IC50.
*A* > 16 µM

*Q* Consider the compound "COC(=O)CNC(=O)C(=O)OC" and give its recorded IC50.
*A* 1030 µM

*Q* Consider the compound "CN1CCN(CCOc2cc(OC3CCOCC3)c3c(Nc4c(Cl)ccc5c4OCO5)ncnc3c2)CC1" and give its recorded IC50.
*A* > 2 µM

*Q* Consider the compound "C=CCc1cccc(/C=N/NC(=O)CN2CCN(Cc3ccccc3)CC2)c1O" and give its recorded IC50.
*A* > 2.56 µM

---

Tested on: COLO-679
RUN_DESCRIPTION: cells
Format: functional, cell-based, Homo sapiens
PARTICULARS: colo-679
Description: SANGER: Inhibition of human COLO-679 cell growth in a cell viability assay.
ASSAY_READOUT: IC50

*Q* Consider the compound Cc1cc([C@@H](C)Nc2ccccc2C(=O)O)c2nc(N3CCOCC3)cc(=O)n2c1 [AZD-6482] and give its recorded IC50.
*A* > 5.12 µM

---

Tested on: DK-MG;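 further: growth inhibition of DK-MG cells, read out with a cell viability assay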
RUN_DESCRIPTION: cells
Type: functional, cell-based, Homo sapiens
PARTICULARS: Homo sapiens, DK-MG
Description: SANGER: Inhibition of human DK-MG cell growth in a cell viability assay.
pIC50: −log10 of the molar value.
List of pIC50 values.

In the examples that follow, each entry is paired with its recorded pIC50.
*Q* Consider the compound "Cn1cncc1[C@@](N)(c1ccc(Cl)cc1)c1ccc2c(c1)c(-c1cccc(Cl)c1)cc(=O)n2C" and give its recorded pIC50.
*A* < 4.80

*Q* Consider the compound "Cc1cnc(-c2cnc(NCCNc3ccc(C#N)cn3)nc2-c2ccc(Cl)cc2Cl)[nH]1" and give its recorded pIC50.
*A* < 5.59

*Q* Consider the compound "O=c1cc(-c2cccc3c2Sc2ccccc2S3)oc(N2CCOCC2)c1" and give its recorded pIC50.
*A* < 5.00

*Q* Consider the compound "CCOc1nc(NC(=O)Cc2cc(OC)ccc2OC)cc(N)c1C#N" and give its recorded pIC50.
*A* < 5.00

*Q* Consider the compound "COC(=O)CNC(=O)C(=O)OC" and give its recorded pIC50.
*A* 3.28

Here is the next item to consider.
*Q* Consider the compound "C=CCNC1=C2C[C@@H](C)C[C@H](OC)[C@H](O)[C@@H](C)/C=C(\C)[C@H](OC(N)=O)[C@@H](OC)/C=C\C=C(/C)C(=O)NC(=CC1=O)C2=O" and give its recorded pIC50.
*A* 6.43

---

Test system: MKN-28
RUN_DESCRIPTION: cells
Format: functional, cell-based, Homo sapiens
PARTICULARS: mkn-28
Description: SANGER: Inhibition of human MKN28 cell growth in a cell viability assay.
pIC50: −log10 of the molar value.
ASSAY_READOUT: pIC50

*Q* # return pIC50 of "Cc1cc([C@@H](C)Nc2ccccc2C(=O)O)c2nc(N3CCOCC3)cc(=O)n2c1" (system: MKN-28);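 further: cell viability assay read-out, IC50 reflects suppression of growth of human MKN-28 cells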
*A* < 5.29

---

Test system: OVCAR-5
RUN_DESCRIPTION: cells
Format: functional, cell-based, Homo sapiens
PARTICULARS: Homo sapiens, OVCAR-5
Description: SANGER: Inhibition of human OVCAR-5 cell growth in a cell viability assay.
pIC50: −log10 of the molar value.
ASSAY_READOUT: pIC50

In the examples that follow, each entry is paired with its recorded pIC50.
*Q* Consider the compound "CN(C)C/C=C/C(=O)Nc1cc2c(Nc3ccc(F)c(Cl)c3)ncnc2cc1O[C@H]1CCOC1" and give its recorded pIC50.
*A* < 6.30

*Q* Consider the compound "CCC1=C[C@@H]2CN(C1)Cc1c([nH]c3ccccc13)[C@@](C(=O)OC)(c1cc3c(cc1OC)N(C)[C@H]1[C@@](O)(C(=O)OC)[C@H](OC(C)=O)[C@]4(CC)C=CCN5CC[C@]31[C@@H]54)C2" and give its recorded pIC50.
*A* < 7.19

Here is the next item to consider.
*Q* Consider the compound "CCOc1nc(NC(=O)Cc2cc(OC)ccc2OC)cc(N)c1C#N" and give its recorded pIC50.
*A* < 5.00

---

System: D-247MG
RUN_DESCRIPTION: cells
Type: functional, cell-based, Homo sapiens
PARTICULARS: Homo sapiens, D-247MG
Description: SANGER: Inhibition of human D-247MG cell growth in a cell viability assay.
ASSAY_READOUT: IC50

*Q* # return IC50 of "O=C1N=C(NCc2cccs2)S/C1=C\c1ccc2ncccc2c1" (system: D-247MG)
*A* > 5 µM

*Q* # return IC50 of "CC(=O)O[C@@H]1[C@@H](OC(C)=O)[C@@H](O)[C@H](Oc2c(-c3ccc(O)cc3)oc3cc(O)cc(O)c3c2=O)O[C@H]1C" (system: D-247MG)
*A* > 10 µM

*Q* # return IC50 of "O=C(c1cc(Cc2n[nH]c(=O)c3ccccc23)ccc1F)N1CCN(C(=O)C2CC2)CC1" (system: D-247MG)
*A* > 5 µM

---

Test system: CHP-126
RUN_DESCRIPTION: cells
Assay type: functional, cell-based
PARTICULARS: Homo sapiens
Description: SANGER: Inhibition of human CHP-126 cell growth in a cell viability assay.
List of IC50 values.

In the examples that follow, each entry is paired with its recorded IC50.
*Q* # return IC50 of "CS(=O)(=O)CCNCc1ccc(-c2ccc3ncnc(Nc4ccc(OCc5cccc(F)c5)c(Cl)c4)c3c2)o1" (system: CHP-126)
*A* > 2 µM

*Q* # return IC50 of "CC1=C2C[C@H]3[C@@H](CC=C4C[C@@H](O)CC[C@@]43C)[C@@H]2CC[C@]12O[C@@H]1C[C@H](C)CN[C@H]1[C@H]2C" (system: CHP-126)
*A* > 16 µM

Further cases:
*Q* # return IC50 of "CCC1=C[C@@H]2CN(C1)Cc1c([nH]c3ccccc13)[C@@](C(=O)OC)(c1cc3c(cc1OC)N(C)[C@H]1[C@@](O)(C(=O)OC)[C@H](OC(C)=O)[C@]4(CC)C=CCN5CC[C@]31[C@@H]54)C2" (system: CHP-126)
*A* > 0.064 µM

*Q* # return IC50 of "Cn1cncc1[C@@](N)(c1ccc(Cl)cc1)c1ccc2c(c1)c(-c1cccc(Cl)c1)cc(=O)n2C" (system: CHP-126)
*A* > 16 µM

---

Tested on: COLO-668
RUN_DESCRIPTION: cells
Assay type: functional, cell-based, Homo sapiens
PARTICULARS: Homo sapiens, COLO-668
Description: SANGER: Inhibition of human COLO-668 cell growth in a cell viability assay.
ASSAY_READOUT: pIC50
Formally, pIC50 is defined as -log10 of the concentration c, with c in mol/L.

*Q* Consider the compound COc1cc([C@@H]2c3cc4c(cc3[C@@H](O[C@@H]3O[C@@H]5CO[C@@H](C)O[C@H]5[C@H](O)[C@H]3O)[C@H]3COC(=O)[C@H]23)OCO4)cc(OC)c1O [ETOPOSIDE] and give its recorded pIC50.
*A* 5.78

Here is the next item to consider.
*Q* Consider the compound CCC1=C[C@@H]2CN(C1)Cc1c([nH]c3ccccc13)[C@@](C(=O)OC)(c1cc3c(cc1OC)N(C)[C@H]1[C@@](O)(C(=O)OC)[C@H](OC(C)=O)[C@]4(CC)C=CCN5CC[C@]31[C@@H]54)C2 [VINORELBINE] and give its recorded pIC50.
*A* 7.55

---

Test system: ML-2
RUN_DESCRIPTION: cells
Format: functional, cell-based
PARTICULARS: Homo sapiens
List of IC50 values.

In the examples that follow, each entry is paired with its recorded IC50.
*Q* # return IC50 of "COc1ccc(C2=N[C@@H](c3ccc(Cl)cc3)[C@@H](c3ccc(Cl)cc3)N2C(=O)N2CCNC(=O)C2)c(OC(C)C)c1" (system: ML-2)
*A* 2570 nM

*Q* # return IC50 of COc1cc([C@@H]2c3cc4c(cc3[C@@H](O[C@@H]3O[C@@H]5CO[C@@H](C)O[C@H]5[C@H](O)[C@H]3O)[C@H]3COC(=O)[C@H]23)OCO4)cc(OC)c1O [ETOPOSIDE] (system: ML-2)
*A* 178 nM

*Q* # return IC50 of "Cc1cnc(-c2cnc(NCCNc3ccc(C#N)cn3)nc2-c2ccc(Cl)cc2Cl)[nH]1" (system: ML-2)
*A* > 2560 nM

Further cases:
*Q* # return IC50 of "CC(=O)O[C@@]12CO[C@@H]1C[C@H](O)[C@@]1(C)C(=O)[C@H](O)C3=C(C)[C@@H](OC(=O)[C@H](O)[C@@H](NC(=O)OC(C)(C)C)c4ccccc4)C[C@@](O)([C@@H](OC(=O)c4ccccc4)[C@H]21)C3(C)C" (system: ML-2)
*A* > 10 nM

*Q* # return IC50 of "CCC1=C[C@@H]2CN(C1)Cc1c([nH]c3ccccc13)[C@@](C(=O)OC)(c1cc3c(cc1OC)N(C)[C@H]1[C@@](O)(C(=O)OC)[C@H](OC(C)=O)[C@]4(CC)C=CCN5CC[C@]31[C@@H]54)C2" (system: ML-2)
*A* 4.32 nM

*Q* # return IC50 of "C[C@]1(O)C[C@@H](c2nc(-c3ccc4ccc(-c5ccccc5)nc4c3)c3c(N)nccn32)C1" (system: ML-2);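 further: growth inhibition of ML-2 cells, measured with a cell viability readout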
*A* 159 nM
